Tested on: PC-3 prostate
Assay: NCI tumour cell line growth inhibition, 48 h
The following compounds are listed with their measured TGI values.

# annotated cases, reported TGI shown
>  <structure string>
CC[C@@]1(O)C(=O)OCc2c1cc1n(c2=O)Cc2c-1nc1ccccc1c2C=Nc1ccccc1N[C@@H]1c2cc3c(cc2[C@@H](c2cc(OC)c(O)c(OC)c2)[C@H]2C(=O)OC[C@@H]21)OCO3

>  <TGI>
> 65.8 µM

$$$$
>  <structure string>
C[C@]12CCC3=NCCN3C1=CC[C@@H]1[C@@H]2CC[C@@]2(C)[C@H]1CC[C@]2(C)O

>  <TGI>
> 100 µM

$$$$
>  <structure string>
COc1ccc(N=Nc2c(N)nn3c(SC)c(C#N)c(N)nc23)cc1

>  <TGI>
21.5 µM

$$$$

Now consider a different compound.
Input `N/C(=N\C(N)=N\c1nc2ccccc2s1)c1cnccn1` . Output TGI: > 100 µM

---

System: UACC-257 melanoma
Assay: NCI tumour cell line growth inhibition, 48 h
The following compounds are listed with their measured GI50 values.

Input `CCN(CC)CCOc1ccc2c(C)c(C(=O)OC)oc2c1C(=O)/C=C/c1ccc(OC)cc1` . Output GI50: 19.8 µM

Input NC(=O)c1ncn(C2OC(CO)C(O)C2O)c1N (centres undefined) . Output GI50: > 100 µM

Input `NC(N)=N/N=C(/c1ccccc1)c1ccccc1F` . Output GI50: 15.8 µM

Input `CCSc1ncc(Br)c(Sc2nc(N)nc3nc[nH]c23)n1` . Output GI50: 12.4 µM

Input `O=NN(CCCl)C(=O)NC1CCCCC1` . Output GI50: 23.7 µM

Input `COc1ccc(/C=C\c2cc(OC)c(OC)c(OC)c2)c(NS(=O)(=O)c2ccc(C(C)(C)C)cc2)c1O` . Output GI50: 13.2 µM

---

Test system: HOP-62 NSCLC
Experiment: NCI tumour cell line growth inhibition, 48 h
The following molecules are listed with their measured TGI values.

# annotated cases, reported TGI shown
>  <molecule>
N#CCC1(n2cc(-c3ncnc4[nH]ccc34)cn2)CN(C2CCN(C(=O)c3ccnc(C(F)(F)F)c3F)CC2)C1

>  <TGI>
> 100 µM

$$$$
>  <molecule>
C/C(Nc1ccc(Cl)cc1)=C1/CCOC1=O

>  <TGI>
> 100 µM

$$$$
>  <molecule>
COc1ccc(C(=O)O/N=C2/CCCCC2CN(C)C)cc1 (stereo not given)

>  <TGI>
> 100 µM

$$$$

Input COC(=O)c1ccccc1C1CN=NC12Cc1c(C)ccc(C)c1C2=O (stereo not given) . Output TGI: > 100 µM

Input COC(=O)C(NC(=O)c1ccccc1)C(c1c(O)cc(O)cc1O)P(=O)(OC)OC (stereo not given) . Output TGI: > 100 µM

---

Test system: NCI/ADR-RES ovarian
Test: NCI tumour cell line growth inhibition, 48 h; in the data active means GI50 below about 0.43 µM; inactive means the rest
Reply using exactly one outcome from True for active, False for inactive

>  <molecule>
O=C(OC[C@@H]1CO1)c1cccc2c(=O)c3ccccc3[nH]c12

>  <target entity>
NCI/ADR-RES ovarian

>  <class label>
True

$$$$
>  <molecule>
CCCCCCCCCCCCOC1C(C(CC(=O)N2CCN(Cc3ccc4c(c3)OCO4)CC2)NS(=O)(=O)c2cc(Cl)cc(Cl)c2)OC2OC(C)(C)OC21 (centres undefined)

>  <target entity>
NCI/ADR-RES ovarian

>  <class label>
False

$$$$

# outcome recorded in this test, key = Nc1ncc(C2[C@H](CNC(=O)c3cc(Br)c[nH]3)C(CNC(=O)c3cc(Br)c[nH]3)[C@@H]2c2cnc(N)[nH]2)[nH]1 (some centres undefined)
False

# outcome recorded in this test, key = `COc1ccc(/C(C)=C(\c2ccc(Cl)cc2)c2ccc(OCCN3CCCCCC3)cc2)cc1F`
False

# outcome recorded in this test, key = `COc1cc(OC)cc(-c2ccc(-c3ccc(C(=N)N)cn3)s2)c1`
False

# outcome recorded in this test, key = `NC(N)=N/N=C(/c1ccccc1)c1ccccc1F`
False

# outcome recorded in this test, key = COc1c(O)c2c3c(c1OC)-c1ccccc1CC3N(S(=O)(=O)c1ccc(C)cc1)CC2 (centres undefined)
False

# outcome recorded in this test, key = `CCSc1ncc(Br)c(Sc2nc(N)nc3nc[nH]c23)n1`
False

# outcome recorded in this test, key = `COC(=O)c1ccc2[nH]c(O)c(C(=Nc3ccc(N(C)C(=O)CN4CCN(C)CC4)cc3)c3ccccc3)c2c1`
False

---

System: IGROV1 ovarian
Assay: NCI tumour cell line growth inhibition, 48 h
readout kind: TGI

# annotated cases, reported TGI shown
>  <compound>
CCOC(=O)C1CCC(=O)N1C(=O)c1ccc(Cl)cc1 (configuration not stated)

>  <TGI>
> 100 µM

$$$$
>  <compound>
Cc1nc(Cc2n[nH]c(C)n2)n[nH]1

>  <TGI>
> 100 µM

$$$$
>  <compound>
Nc1ncc(C2[C@H](CNC(=O)c3cc(Br)c[nH]3)C(CNC(=O)c3cc(Br)c[nH]3)[C@@H]2c2cnc(N)[nH]2)[nH]1 (some centres not stated)

>  <TGI>
> 50 µM

$$$$

Input O=c1[nH]c2ccc([N+](=O)[O-])cc2nc1/C(=N/Nc1ccccc1)C(O)c1ccco1 (configuration not stated) . Output TGI: > 100 µM

---

Tested on: SNB-78 CNS
Experiment: NCI tumour cell line growth inhibition, 48 h
readout kind: TGI

>  <compound>
Cc1nc(-n2nc(-c3ccccc3)cc2-c2ccccc2)sc1C(=O)/C=C/c1ccccc1

>  <TGI>
> 100 µM

$$$$
>  <compound>
CCCCCCCCCCCCCCCC(=O)OCC1OC(n2cc(F)c(=O)[nH]c2=O)C(NC(=O)N(CCCl)N=O)C(O)C1O (centres undefined)

>  <TGI>
18.1 µM

$$$$
>  <compound>
COc1ccc2c(c1)[n+](=O)c(C(C)=O)c(C)n2[O-]

>  <TGI>
> 100 µM

$$$$

Input `Cc1ccc(NC(=O)C(=O)Cc2cccc[n+]2[O-])cc1C` . Output TGI: > 100 µM

---

System: SF-268 CNS
Assay: NCI tumour cell line growth inhibition, 48 h
The following compounds are listed with their measured TGI values.

# annotated cases, reported TGI shown
>  <compound>
Cc1nc(-n2nc(-c3ccccc3)cc2-c2ccccc2)sc1C(=O)/C=C/c1ccccc1

>  <TGI>
> 100 µM

$$$$
>  <compound>
COC(=O)CC1CC2(C(=O)OC)c3[nH]c4ccccc4c3CCN2C1=O (stereo not given)

>  <TGI>
> 100 µM

$$$$

Value (TGI, SF-268 CNS) for record `CCOc1ccccc1NC(=O)C1=C(C)NC(C)=C(C(=O)Nc2ccccc2OCC)C1c1ccc([N+](=O)[O-])cc1` = > 100 µM

Value (TGI, SF-268 CNS) for record `C=CCNC1=C2C[C@@H](C)C[C@@H](OC)[C@H](OC(=O)CCN(C)C)[C@H](C)/C=C(\C)[C@@H](OC(N)=O)[C@H](OC)/C=C\C=C(/C)C(=O)NC(=CC1=O)C2=O` = 29.4 µM

---

The following compounds are listed with their measured GI50 values.
Tested on: SNB-19 CNS
Assay: NCI tumour cell line growth inhibition, 48 h

>  <compound>
OCCCCC#Cc1ccccc1C#Cc1ccc(C(F)(F)F)cc1

>  <target entity>
SNB-19 CNS

>  <GI50>
17.3 µM

$$$$
>  <compound>
C=C1CC/C=C(\C)CC[C@H](C(=C)C)[C@@H](O)/C=C(/CO)CCC1O (some centres undefined)

>  <target entity>
SNB-19 CNS

>  <GI50>
> 100 µM

$$$$
>  <compound>
O=C(N/N=C/c1ccc(F)cc1)c1ccc(C(F)(F)F)nc1Nc1cccc(C(F)(F)F)c1

>  <target entity>
SNB-19 CNS

>  <GI50>
1.51 µM

$$$$

Input `CC1(C)CC[C@]2(C(=O)O)CC[C@]3(C)C(=CC[C@@H]4[C@@]5(C)C/C(=C/c6ccco6)C(=O)C(C)(C)[C@@H]5CC[C@]43C)[C@@H]2C1` . Output GI50: 4.02 µM

---

Tested on: NCI-H460 lung
Assay: NCI tumour cell line growth inhibition, 48 h
readout kind: TGI

# annotated cases, reported TGI shown
>  <compound>
COc1ccc(Cc2nc3cc(OC)c(OC)cc3c(=O)[nH]2)cc1

>  <TGI>
> 100 µM

$$$$
>  <compound>
O=c1c2cc(I)ccc2nc(-c2cccs2)n1O

>  <TGI>
> 100 µM

$$$$
>  <compound>
O=c1[nH]c2ccc([N+](=O)[O-])c(Cl)c2c2ccccc12

>  <TGI>
4.47 µM

$$$$
>  <compound>
COC(=O)[C@]1(C)CCC[C@]2(C)[C@@H]1CCC13C[C@@H](C=CO1)[C@@H](C)CC32O (stereo not given in full)

>  <TGI>
> 100 µM

$$$$
>  <compound>
O=C1CNN=C(Cn2nc(-c3ccccc3)c3ccccc3c2=O)N1

>  <TGI>
> 100 µM

$$$$
>  <compound>
OCC#Cc1ccccc1C#Cc1ccc(C#Cc2ccccc2)cc1

>  <TGI>
79.8 µM

$$$$
>  <compound>
O=C(NCc1ccccc1Cl)c1c(O)c2ccccc2[nH]c1=O

>  <TGI>
> 100 µM

$$$$
>  <compound>
CCOc1ccc(Nc2nc(-c3c(C)nc4ncccn34)cs2)cc1

>  <TGI>
12.5 µM

$$$$

Input `Cc1ccc(NC(=O)C(=O)Cc2cccc[n+]2[O-])cc1C` . Output TGI: > 100 µM

Input `CC(C)=CC(=O)c1c(C(=O)O)nc2ccccc2[n+]1[O-]` . Output TGI: > 100 µM
